System: Bacillus subtilis DB104 (SP-AmyQ fusion secretion)
assay: AmyQ secretion efficiency, weighted average sort bin (1 = best secretion, 10 = worst) (bin number (weighted average, 1-10)); higher = lower secretion efficiency
Answer each item with its documented AmyQ secretion efficiency.
// return just the number, without any unit appended

### Prompt Name the recorded AmyQ secretion efficiency for "MKKTIMSFVAVAALSTTAFQPHASAKEI" .
### Response 2.23

### Prompt Name the recorded AmyQ secretion efficiency for "MPKKCSVCLWILVLLLSCLSGKSAYAATS" .
### Response 2.99

### Prompt Name the recorded AmyQ secretion efficiency for "MKKCLLFLTTIALILSLSTNAFAANE" .
### Response 1.03

### Prompt Name the recorded AmyQ secretion efficiency for "MKVCQKSIVRFLVSLIIGTFVIRKKFMANAQSD" .
### Response 6.59

### Prompt Name the recorded AmyQ secretion efficiency for "MKKSTRKYKILGALGTSYISADSS" .
### Response 7.69

### Prompt Name the recorded AmyQ secretion efficiency for "MKKKLAAGLTASAIVGTTLVVTPAEDATI" .
### Response 6.33

### Prompt Name the recorded AmyQ secretion efficiency for "MRKKRVITCVMAASLTLGSLLSPAGYASAKED" .
### Response 3.22

* * *

Tested on: Bacillus subtilis DB104 (SP-AmyQ fusion secretion)
assay: AmyQ secretion efficiency, weighted average sort bin (1 = best secretion, 10 = worst) (bin number (weighted average, 1-10)); higher = lower secretion efficiency
Outcome: True for AmyQ secretion efficiency of at least 3; False for anything lower.

### Prompt Item "MKRMIRTLPLLIVCLAFSSFSASARAASE" with AmyQ secretion efficiency of 3 or above?
### Response False

### Prompt Item "MKSKWMSGLLLVAVGFSFRKKMVHAGET" with AmyQ secretion efficiency of 3 or above?
### Response True

### Prompt Item "MTKKAWFLPLVCVLLISGWLAPAASASPQTT" with AmyQ secretion efficiency of 3 or above?
### Response False

### Prompt Item "MLGMGWMVGLLAGCLAAGGFSYNAFATEN" with AmyQ secretion efficiency of 3 or above?
### Response True

### Prompt Item "MKRMIVRMTKKRRIVCLAFSSFSASARAASE" with AmyQ secretion efficiency of 3 or above?
### Response True

### Prompt Item "MKVPKTMNFSFTLLSTAAGLLLSLTATSVSAHYV" with AmyQ secretion efficiency of 3 or above?
### Response True

### Prompt Item "MPYLKRVLLLLVTGLFMSLFAVTATASRQTG" with AmyQ secretion efficiency of 3 or above?
### Response False

### Prompt Item "MKQIMIFLTSFMLLAMTGTTALAKDV" with AmyQ secretion efficiency of 3 or above?
### Response True

### Prompt Item "MKSKWMSGLLLVAVGFSFTLFSSAVVSTQVMVHAGET" with AmyQ secretion efficiency of 3 or above?
### Response True

### Prompt Item "MKKQSYSATTAVVLGSTLFAGAASAQSI" with AmyQ secretion efficiency of 3 or above?
### Response True

### Prompt Item "MKKWIYVVLVLSIAGIGGFSVHMASS" with AmyQ secretion efficiency of 3 or above?
### Response True

* * *

Tested on: Bacillus subtilis DB104 (SP-AmyQ fusion secretion)
assay: AmyQ secretion efficiency, weighted average sort bin (1 = best secretion, 10 = worst) (bin number (weighted average, 1-10)); higher = lower secretion efficiency
experimental_endpoint: AmyQ secretion efficiency
// return just the number, without any unit appended

### Prompt Name the recorded AmyQ secretion efficiency for "MKWMCSTCCAAVLLAGGAAQAEAV" .
### Response 2.63

### Prompt Name the recorded AmyQ secretion efficiency for "MKVPKTMLLSTAAGLLLSLTATSVSAEEE" .
### Response 2.6

### Prompt Name the recorded AmyQ secretion efficiency for "MKVCQKSIVRFLVSLIIGTFVISVPFMANAQSE" .
### Response 1.52

### Prompt Name the recorded AmyQ secretion efficiency for "MMKKQVMLALTAAAGLGLTALHSAPAAKAAPL" .
### Response 2.65

### Prompt Name the recorded AmyQ secretion efficiency for "MTKKAWFLTLVCVLLISGWLAPAASASAQTT" .
### Response 1.56

### Prompt Name the recorded AmyQ secretion efficiency for "MIMLWRSLALCGLALTLAPCAQAAEP" .
### Response 4.91

### Prompt Name the recorded AmyQ secretion efficiency for "MKLWMRKTLVVLFTIVTFGLVSPPAAKMADKP" .
### Response 3.22

### Prompt Name the recorded AmyQ secretion efficiency for "MLKRTSFVSSLFISSAVLLSILRRKRRRAHAQSA" .
### Response 7.6

### Prompt Name the recorded AmyQ secretion efficiency for "MKKVLMAFIICLSLILSVLAAPPSGKKAESV" .
### Response 8.34

### Prompt Name the recorded AmyQ secretion efficiency for "MSTGILAAGLTASAIVGTTLVVTPAEAATI" .
### Response 4.73

### Prompt Name the recorded AmyQ secretion efficiency for "MKKAFLVFLSVVLVTTVFLVKQQESVAQKKQL" .
### Response 4.43

### Prompt Name the recorded AmyQ secretion efficiency for "MKSKWMSGLLLVAVGFSFTQVMLHAGET" .
### Response 6.15

### Prompt Name the recorded AmyQ secretion efficiency for "MRNLTKTSLLLAGLCTAAQMVFVTHASADDE" .
### Response 5.02

* * *

Test system: Bacillus subtilis DB104 (SP-AmyQ fusion secretion)
assay: AmyQ secretion efficiency, weighted average sort bin (1 = best secretion, 10 = worst) (bin number (weighted average, 1-10)); higher = lower secretion efficiency
experimental_endpoint: AmyQ secretion efficiency

### Prompt Name the recorded AmyQ secretion efficiency for "MKLKKRFLVALTMCGGLFVTPAKAVKT" .
### Response 7.15

### Prompt Name the recorded AmyQ secretion efficiency for "MKKAKRKRRKAAVGLFTFGGVQQASAKEL" .
### Response 8.05

### Prompt Name the recorded AmyQ secretion efficiency for "MKKIVSILFMFGLVMGFSQFQPSTVFARRK" .
### Response 5.68

### Prompt Name the recorded AmyQ secretion efficiency for "MTKKAWFLPLVCVLLIVSWLASAASASAQTT" .
### Response 2.08

### Prompt Name the recorded AmyQ secretion efficiency for "MKRITINIKRRKRRAAVISLTGTAEAAEK" .
### Response 7.96

### Prompt Name the recorded AmyQ secretion efficiency for "MKNMSCKLRKKKTLFFSFLTIGPLAHAQNS" .
### Response 6.98

### Prompt Name the recorded AmyQ secretion efficiency for "MMSLLAAGIIGLLTVSIASPSFAAEK" .
### Response 5.23

### Prompt Name the recorded AmyQ secretion efficiency for "MRGKSAVLLSLIMLIAGFLIPFSFQM" .
### Response 7.72

### Prompt Name the recorded AmyQ secretion efficiency for "MKKRLIAPMSGYGASLAFFAMSGSAQAAAY" .
### Response 7.43

### Prompt Name the recorded AmyQ secretion efficiency for "MKVCQKSIVRSGVSLIIGTFVISVPFMANAQSD" .
### Response 2.46

### Prompt Name the recorded AmyQ secretion efficiency for "MRPVFPLILSAVLFLSCFFGARQTEASTSKR" .
### Response 2.25

### Prompt Name the recorded AmyQ secretion efficiency for "MKLSVKIAGVLTVAAAAMTAKMYMTAKGN" .
### Response 6.8

### Prompt Name the recorded AmyQ secretion efficiency for "MKKWIYVVLVLSIAGIGGKRRVHAASS" .
### Response 7.83
